# assay-comment: PK of compound of Formula (Ia) after single subcutaneous dose of solution formulations in beagle dogs
# Format: in vivo
# condition-parameters: male, beagle, dog, plasma, sc, 6 mg/kg, 672 h; mean, n = 3 dogs; SC 6 mg/kg; solution V, 300 mg/mL
quantity-kind: concentration at 672 h (nM)
Use nM as the unit, but write only the number.

# input Please give the measured concentration at 672 h for this molecule: CC(C)(C#Cc1ccc(-c2ccc(Cl)c3c(NS(C)(=O)=O)nn(CC(F)(F)F)c23)c([C@H](Cc2cc(F)cc(F)c2)NC(=O)Cn2nc(C(F)(F)F)c3c2C(F)(F)[C@@H]2C[C@H]32)n1)S(C)(=O)=O
# output 122

---

# assay-comment: PK of compound of Formula (Ia) after single subcutaneous dose of solution formulations in Wistar Han rats
# Assay type: in vivo
# condition-parameters: male, Wistar Han, rat, plasma, sc, 50 mg/kg, 4032 h; mean (rat #1 NS); SC 50 mg/kg; solution T, 400 mg/mL
quantity-kind: concentration at 4032 h
Answer shape: numeric part, then the unit.

# input Please give the measured concentration at 4032 h for this compound: CC(C)(C#Cc1ccc(-c2ccc(Cl)c3c(NS(C)(=O)=O)nn(CC(F)(F)F)c23)c([C@H](Cc2cc(F)cc(F)c2)NC(=O)Cn2nc(C(F)(F)F)c3c2C(F)(F)[C@@H]2C[C@H]32)n1)S(C)(=O)=O
# output 71.5 nM

---

# assay-comment: PK of compound of Formula (Ia) after single subcutaneous dose of solution formulations in beagle dogs
# Assay type: in vivo
# condition-parameters: male, beagle, dog, plasma, sc, 12 mg/kg, mean ± SD, n = 3 dogs; SC 12 mg/kg; solution U, 500 mg/mL
# Experimental: Formulations containing the compound of Formula (Ia), or a pharmaceutically acceptable salt thereof, were prepared as solutions and optionally administered subcutaneously or intramuscularly to rats, rabbits, and/or dogs. A solution of about 400 mg/mL of the compound of Formula (Ia) having 17.00 w/w % water, 36.40 w/w % PEG 300, 35.20 w/w % of a sodium salt of a compound of Formula (Ia), 5.00 w/w % ethanol, and 6.40 w/w % poloxamer 188 was prepared. […]
quantity-kind: AUC(0-inf) (µM·h)
Use µM·h as the unit, but write only the number.

# input Please give the measured AUC(0-inf) for this compound: CC(C)(C#Cc1ccc(-c2ccc(Cl)c3c(NS(C)(=O)=O)nn(CC(F)(F)F)c23)c([C@H](Cc2cc(F)cc(F)c2)NC(=O)Cn2nc(C(F)(F)F)c3c2C(F)(F)[C@@H]2C[C@H]32)n1)S(C)(=O)=O
# output 141

---

# assay-comment: PK of compound of Formula (Ia) after single subcutaneous dose of solution formulations in beagle dogs
# Format: in vivo
# condition-parameters: male, beagle, dog, plasma, sc, 12 mg/kg, male beagle dogs, single SC 12 mg/kg, 400 mg/mL solution Y (water, PEG 300), mean ± SD, n = 3; read-out: AUC0-168 h
quantity-kind: AUC(0-t) (µM·h)
Use µM·h as the unit, but write only the number.

# input Please give the measured AUC(0-t) for this molecule: CC(C)(C#Cc1ccc(-c2ccc(Cl)c3c(NS(C)(=O)=O)nn(CC(F)(F)F)c23)c([C@H](Cc2cc(F)cc(F)c2)NC(=O)Cn2nc(C(F)(F)F)c3c2C(F)(F)[C@@H]2C[C@H]32)n1)S(C)(=O)=O
# output 9.61

These data points were gathered from patent US11807625B2.
